- target of assay: UBE2L3; also: test concentration or dose not given here
- assay remarks: reporter assay of Huesken 2005
- experimental conditions: siRNA
Oligonucleotides are written 5' to 3', each unit as a sugar letter and its base; * is a phosphorothioate linkage, no mark a phosphodiester; rarer units and linkages stand in square brackets, end groups in braces. Plain capitals give the bases only. d = 2'-deoxy (DNA); r = 2'-OH (RNA)
Collected normalised inhibition (eCFP-eYFP dual reporter) values appear next to each entry.
reported property: normalised inhibition (eCFP-eYFP dual reporter) (%)

{"substance": "sense rUrArCrCrCrArUrUrCrArArArCrCrArCrCrGrAdTdT / antisense rUrCrGrGrUrGrGrUrUrUrGrArArUrGrGrGrUrAdCdT", "units": "%", "result value": 71.8}
{"substance": "sense rUrArUrUrGrArCrUrUrGrGrCrArArGrGrGrCrUdTdT / antisense rArGrCrCrCrUrUrGrCrCrArArGrUrCrArArUrAdAdA", "units": "%", "result value": 75.3}
{"substance": "sense rUrArUrCrArCrCrCrArArArCrArUrCrGrArCrGdTdT / antisense rCrGrUrCrGrArUrGrUrUrUrGrGrGrUrGrArUrAdGdA", "units": "%", "result value": 57}
